Give measured cytotoxicity at 10 µM for each item. Keep answers brief.
- assay-text: Toxicity liver stage against HepG2, at 10uM
- Format: cell-based
- Design: test concentration 10 uM, cell line HepG2-A16-CD81EGFP
- condition-details: human, HepG2-A16-CD81EGFP cells; read-out: INHIBITION
Give your result in % as a bare value.

Form field: reported cytotoxicity at 10 µM of CN(C)C(CNCc1nc(-c2ccsc2)no1)c1cccs1 (stereo unspecified)
16.3

And for "O=C(NCCNc1cnccn1)N1CC=C(c2ccc(O)cc2)CC1" ?
18.6

Similarly, N#Cc1ncn(CC(=O)N2CCCC2c2cccs2)n1 (stereo unspecified) ?
-21.7

What do we get for "Cc1nc(CN2C[C@@H]3CN(C(=O)c4ccoc4C)C[C@@H]3C2=O)cs1" ?
-76.8

Okay, and "CC1CCN(CCNC(=O)C2CCN(S(N)(=O)=O)CC2)CC1" ?
17.9

Further, for CCc1nc(C2CCCN2C(=O)c2csc(NC(C)=O)n2)no1 (stereo unspecified) ?
-5.12

The measured values listed here are drawn from ChEMBL document CHEMBL4513216.
